Tested on: U-937
Test: Antiproliferative activity against human U-937 cells assessed as reduction in cell growth incubated for 72 hrs by MTT assay
Format: functional, cell-based
Settings: U-937, 72 h
PROPERTY: pIC50
The meaning of pIC50 here: minus log10 of the concentration in molar units.

QUERY: Provide measured pIC50 value, entry: Nc1ncnc2c1ncn2Cc1ccc(-c2cn(CCCCCCC(=O)NO)nn2)cc1
RESULT: 5.89

* * *

Experiment: Cytotoxicity against human HEK293T cells assessed as cell growth inhibition by MTT assay
Type: toxicity, cell-based, HEK-293T
PROPERTY: IC50 (µM)
Give the value in µM but do not write µM after it.

QUERY: Provide measured IC50 value, entry: COc1ccc2c(NC3CCN(Cc4ccccc4)CC3)nc(NCCNC(=O)CCCCC(=O)NO)nc2c1
RESULT: 19.9
